Catalogue of PSMA Blkg % (10 μM) readings, one per entry.
- assay_target: human PSMA (Homo sapiens (Human))
- assay_overview: Enzymatic assay for in vitro evaluation of PSMA inhibitors (fluorescent assay of PSMA activity, NAAG substrate, OPA detection of glutamate)
- Format: biochemical
- conditions_used: compound at 10 μM
readout_type: PSMA Blkg % (10 μM) (%)

INSERT INTO measurements (compound, readout_type, observed_result) VALUES
  ('O=C(O)CC[C@H](NC(=O)N[C@@H](CCCCNC(=O)CCCn1cc(CCCF)nn1)C(=O)O)C(=O)O [P045]', 'PSMA Blkg % (10 μM)', 95),
  ('C[C@H](NC(=O)N[C@@H](CCC(=O)O)C(=O)O)C(=O)O [P025]', 'PSMA Blkg % (10 μM)', 92),
  ('O=C(O)CC[C@@H](C(=O)O)N(O)C(=O)N[C@@H](CCCCNC(=O)c1ccc(-n2cc(CCCF)nn2)cc1)C(=O)O [P152]', 'PSMA Blkg % (10 μM)', 93),
  ('O=C(O)CC[C@@H](C(=O)O)N1C(=O)CC(=O)N([C@@H](CCCCNC(=O)CCCCn2cc(CCCF)nn2)C(=O)O)C1=O [P076]', 'PSMA Blkg % (10 μM)', 14),
  ('O=C(O)CC[C@@H](C(=O)O)N1C(=O)C(=O)N([C@@H](CCCCNC(=O)OCc2ccccc2)C(=O)O)C1=O [P072]', 'PSMA Blkg % (10 μM)', 39),
  ('O=C(O)CC[C@@H](C(=O)O)N(O)C(=O)N[C@@H](CCCCNC(=O)CCCc1ccc(-n2cc(CCCF)nn2)cc1)C(=O)O [P147]', 'PSMA Blkg % (10 μM)', 69),
  ('O=C(O)CC[C@@H](C(=O)O)N1C(=O)CC(=O)N([C@@H](CCCCNC(=O)NCc2ccccc2)C(=O)O)C1=O [P129]', 'PSMA Blkg % (10 μM)', 10);

====

- assay_target: human PSMA (Homo sapiens (Human), UniProt Q04609)
- Sequence (Q04609 whole entry): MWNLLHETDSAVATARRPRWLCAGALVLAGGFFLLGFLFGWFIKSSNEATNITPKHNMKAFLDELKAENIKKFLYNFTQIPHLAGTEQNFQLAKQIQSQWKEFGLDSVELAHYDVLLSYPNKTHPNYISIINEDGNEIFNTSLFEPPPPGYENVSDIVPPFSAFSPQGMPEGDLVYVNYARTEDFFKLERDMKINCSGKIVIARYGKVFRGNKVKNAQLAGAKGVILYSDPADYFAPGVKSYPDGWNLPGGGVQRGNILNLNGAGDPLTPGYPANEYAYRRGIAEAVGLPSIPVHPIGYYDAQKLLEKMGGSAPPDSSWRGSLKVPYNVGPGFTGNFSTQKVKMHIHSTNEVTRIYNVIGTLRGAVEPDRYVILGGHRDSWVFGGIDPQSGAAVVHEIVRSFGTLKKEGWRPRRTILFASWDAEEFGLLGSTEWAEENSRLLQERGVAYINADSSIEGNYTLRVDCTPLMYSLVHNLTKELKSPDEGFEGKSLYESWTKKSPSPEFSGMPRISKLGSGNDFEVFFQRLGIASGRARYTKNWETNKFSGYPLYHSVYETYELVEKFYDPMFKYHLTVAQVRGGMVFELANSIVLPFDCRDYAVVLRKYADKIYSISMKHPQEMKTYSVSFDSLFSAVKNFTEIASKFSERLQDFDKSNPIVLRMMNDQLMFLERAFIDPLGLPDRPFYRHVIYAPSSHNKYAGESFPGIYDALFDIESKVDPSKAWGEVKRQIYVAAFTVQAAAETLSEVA
- assay_overview: Enzymatic assay for in vitro evaluation of PSMA inhibitors (fluorescent assay of PSMA activity, NAAG substrate, OPA detection of glutamate)
- Assay type: biochemical
- conditions_used: compound at 10 μM
- Procedure: Enzymatic Assay for In Vitro Evaluation of PSMA Inhibitors The inhibitory activity of all compounds was determined using a fluorescent assay of human PSMA activity. The enzyme used in the assay was purchased from R&D Systems and stored at −80° C. […] In the second step, the amount of accumulated glutamate was measured using the OPA reaction, and the fluorescence was read with a SpectraMax fluorescent plate reader using excitation at 330 nm and emission at 450 nm. […]
Measured PSMA Blkg % (10 μM), listed per entry for reference.
readout_type: PSMA Blkg % (10 μM)

INSERT INTO assay_data (compound, observed_result) VALUES
  ('O=C(O)CCCC(=O)NC(CCC(=O)O)C(=O)O (centres unmarked)', '2%'),
  ('Cc1ccc(S(=O)(=O)NCCCC[C@@H](C(=O)O)N(C)C(=O)N[C@@H](CCC(=O)O)C(=O)O)cc1', '38%'),
  ('O=C(O)CC[C@@H](C(=O)O)N1C(=O)CC(=O)N([C@@H](CCCCNC(=O)OCc2ccc([N+](=O)[O-])cc2)C(=O)O)C1=O', '15%'),
  ('O=C(O)CC[C@H](NC(=O)N[C@@H](Cc1ccc(NC(=O)CCCCCn2cc(CCCF)nn2)cc1)C(=O)O)C(=O)O', '52%'),
  ('CC(C)(C)OC(=O)NCCCCN1CC(=O)N([C@@H](CCC(=O)O)C(=O)O)C(=O)C1', '0%'),
  ('O=C(O)CC[C@H](NC(=O)N(CC(=O)O)[C@@H](CCCCNC(=O)OCc1ccccc1)C(=O)NO)C(=O)O', '0%'),
  ('O=C(O)CC[C@H](NC(=O)N(O)[C@@H](CCCCNC(=O)Cn1cc(CCCF)nn1)C(=O)O)C(=O)O', '87%'),
  ('O=C(O)CC[C@H](NC(=S)NC(CCCCNC(=O)OCc1ccccc1)C(=O)O)C(=O)O (some centres unmarked)', '94%');

====

- assay_target: human PSMA (Homo sapiens (Human))
- assay_overview: Enzymatic assay for in vitro evaluation of PSMA inhibitors (fluorescent assay of PSMA activity, NAAG substrate, OPA detection of glutamate)
- Type: biochemical
- conditions_used: compound at 10 μM
- Procedure: Enzymatic Assay for In Vitro Evaluation of PSMA Inhibitors The inhibitory activity of all compounds was determined using a fluorescent assay of human PSMA activity. The enzyme used in the assay was purchased from R&D Systems and stored at −80° C. […] In the second step, the amount of accumulated glutamate was measured using the OPA reaction, and the fluorescence was read with a SpectraMax fluorescent plate reader using excitation at 330 nm and emission at 450 nm. […]
Where a SMILES comes first, the peptide text is derived from it. [ ]: non-standard residue; d: D form. The star is where a group is joined. Boc = CC(C)(C)OC(=O)*; Nlys = NCCCCNCC(=O)O
PSMA Blkg % (10 μM) for assorted compounds
readout_type: PSMA Blkg % (10 μM) (%)

INSERT INTO measurements (compound, assay_target, reading_unit, observed_result) VALUES
  ('COc1ccc(-c2cn(CC(=O)NCCCC[C@@H](C(=O)O)N(C)C(=O)N[C@@H](CCC(=O)O)C(=O)O)nn2)cc1', 'human PSMA (Homo sapiens (Human))', '%', 68),
  ('O=C(O)CC[C@H](NC(=O)N(CC(=O)O)[C@@H](CCCCNC(=O)OCc1ccccc1)C(=O)O)C(=O)O', 'human PSMA (Homo sapiens (Human))', '%', 21),
  ('O=C(O)CC[C@H](NC(=S)N(O)[C@@H](CCCCNC(=O)c1ccc(-n2cc(CCCF)nn2)cc1)C(=O)O)C(=O)O', 'human PSMA (Homo sapiens (Human))', '%', 45),
  ('CC(C)(C)OC(=O)NCCCCN(CC(=O)N[C@@H](CCC(=O)O)C(=O)O)C(N)=O', 'human PSMA (Homo sapiens (Human))', '%', 0),
  ('N#C/N=C(/N[C@@H](CCCCNC(=O)c1ccc(-n2cc(CCCF)nn2)cc1)C(=O)O)N[C@@H](CCC(=O)O)C(=O)O', 'human PSMA (Homo sapiens (Human))', '%', 63),
  ('[N-]=[N+]=Nc1ccc(C(=O)NCCCC[C@H](NC(=O)N[C@@H](CCC(=O)O)C(=O)O)C(=O)O)cc1', 'human PSMA (Homo sapiens (Human))', '%', 100),
  ('CCC1(CC)C(=O)N([C@@H](CCCCn2cc(COCCOCCNc3ccc([N+](=O)[O-])cc3[N+](=O)[O-])nn2)C(=O)O)C(=O)N([C@@H](CCC(=O)O)C(=O)O)C1=O', 'human PSMA (Homo sapiens (Human))', '%', 17),
  ('CCC1(CC)C(=O)N([C@@H](CCCCn2cc(CCCF)nn2)C(=O)O)C(=O)N([C@@H](CCC(=O)O)C(=O)O)C1=O', 'human PSMA (Homo sapiens (Human))', '%', 9),
  ('O=C(Nc1cc(C(=O)O)cc(C(=O)O)c1)N[C@@H](Cc1ccc(OCCF)cc1)C(=O)O', 'human PSMA (Homo sapiens (Human))', '%', 0),
  ('O=C(O)CC[C@H](NC(=O)N[C@@H](CCCCNC(=O)c1ccc(F)nc1)C(=O)O)C(=O)O', 'human PSMA (Homo sapiens (Human))', '%', 92),
  ('O=C(O)CC[C@H](NS(=O)(=O)NC(=O)OCc1ccccc1)C(=O)O', 'human PSMA (Homo sapiens (Human))', '%', 1),
  ('O=C(O)CC[C@H](Nc1nc(C(=O)O)co1)C(=O)O', 'human PSMA (Homo sapiens (Human))', '%', 12),
  ('[N-]=[N+]=NCCCCC(=O)NCCCC[C@@H](C(=O)O)N1C(=O)CC(=O)N([C@@H](CCC(=O)O)C(=O)O)C1=O', 'human PSMA (Homo sapiens (Human))', '%', 2),
  ('O=C(O)CCC(CP(=O)(O)O)C(=O)O (stereo not shown)', 'human PSMA (Homo sapiens (Human))', '%', 100),
  ('O=C(O)CC[C@H](NC(=O)N(O)[C@@H](CCCCNC(=O)c1ccc(F)nc1)C(=O)O)C(=O)O', 'human PSMA (Homo sapiens (Human))', '%', 92),
  ('O=C(O)CC[C@@H](C(=O)O)n1c(=O)[nH]c(=O)n([C@@H](CCCCNC(=O)OCc2ccccc2)C(=O)O)c1=O', 'human PSMA (Homo sapiens (Human))', '%', 19),
  ('CC(F)C(=O)Nc1ccc(C(=O)NCCCC[C@H](NC(=O)N(O)[C@@H](CCC(=O)O)C(=O)O)C(=O)O)cc1 (stereo partly shown)', 'human PSMA (Homo sapiens (Human))', '%', 85),
  ('CC(C)(C)OC(=O)NCCCCNCC(=O)N[C@@H](CCC(=O)O)C(=O)O [P051] (H-[Nlys](Boc)-Glu-OH)', 'human PSMA (Homo sapiens (Human))', '%', 4),
  ('CN(C(=O)N[C@@H](CCC(=O)O)C(=O)O)[C@@H](CCCCNC(=O)c1ccc(N=[N+]=[N-])cc1)C(=O)O', 'human PSMA (Homo sapiens (Human))', '%', 99),
  ('CCS(=O)(=O)N(CCc1ccccc1)CC(=O)NC(CCC(=O)O)C(=O)O (stereo not shown)', 'human PSMA (Homo sapiens (Human))', '%', 2),
  ('CCC1(CC)C(=O)N([C@@H](CCCCNC(=O)OCc2ccccc2)C(=O)O)C(=S)N([C@@H](CCC(=O)O)C(=O)O)C1=O', 'human PSMA (Homo sapiens (Human))', '%', 6),
  ('O=C(O)CC[C@H](NC(=O)N(O)CCCc1ccccc1)C(=O)O', 'human PSMA (Homo sapiens (Human))', '%', 2);
